# protocol: Effects on AGEs formation (BSA-methylglyoxal, fluorescence)
# Format: biochemical
# experimental.parameters: 19.61 μg/mL
property: Inhibition (%) of AGEs
Give the value in % but do not write % after it.

Input line: Item O=C(O)/C=C/c1ccc(O)c(O)c1 [Compound 1, caffeic acid] has what recorded Inhibition (%) of AGEs?
Output line: 9.33

Input line: Need Inhibition (%) of AGEs, item N=C(N)NN [Aminoguanidine, reference compound]
Output line: 3.96

Input line: For the molecule O=C(/C=C/c1ccc(O)c(O)c1)O[C@H](Cc1ccc(O)c(O)c1)C(=O)O [Compound 4, rosmarinic acid] , what Inhibition (%) of AGEs is on record?
Output line: 20.67

Input line: Endpoint output: Inhibition (%) of AGEs of O=Cc1ccc(O)c(O)c1 [Compound 6, protocatechualdehyde] . Value?
Output line: 9.85

###

# protocol: ABTS•+ assay
# experimental.parameters: 3.33 μg/mL
Use true when the recorded Inhibition (%) of ABTS•+ is no lower than 80%; use false when it is lower.

Input line: Textbook exercise: given the entry O=Cc1ccc(O)c(O)c1 , state whether its Inhibition (%) of ABTS•+ is greater than or equal to 80%.
Output line: true

Input line: Is Inhibition (%) of ABTS•+ at least 80%? Consider O=C(O)/C=C/c1ccc(O)c(O)c1
Output line: false

Input line: Is the recorded value of Inhibition (%) of ABTS•+ equal to or greater than 80% for this compound? O=C(O)c1ccc(O)c(O)c1
Output line: true

Input line: Record C=COC(=O)/C=C/c1ccc(O)c(O)c1 ; criterion: Inhibition (%) of ABTS•+ no lower than 80%. Met?
Output line: true

Input line: # check: Inhibition (%) of ABTS•+ of O=C(O)C=Cc1ccc(O)cc1 [Compound 3, p-hydroxycinnamic acid] is greater than or equal to 80%
Output line: false

Input line: Please check the record Cc1c(C)c2c(c(C)c1O)CCC(C)(C(=O)O)O2 (stereo not shown) [Trolox, reference compound] and state if its Inhibition (%) of ABTS•+ is at or above 80%.
Output line: false

###

# protocol: ABTS•+ assay
pIC50: −log10 of the molar value.
Class t: pIC50 at least 5. Class f: pIC50 below 5.

Input line: Dear colleague, could you confirm whether O=C(O)C=Cc1ccc(O)cc1 [Compound 3, p-hydroxycinnamic acid] has pIC50 at or above 5?
Output line: t

Input line: Does the reported pIC50 for Cc1c(C)c2c(c(C)c1O)CCC(C)(C(=O)O)O2 (stereo not shown) [Trolox, reference compound] fall at or above the 5 mark?
Output line: f

###

# assay.target: rat lens aldose reductase (rAR) (Rattus norvegicus)
# Construct: from tissue; host or cells: lens of Sprague-Dawley rats (homogenate supernatant)
# protocol: Rat lens aldose reductase (rAR) inhibition, NADPH decrease at 340 nm
# Assay type: biochemical
# experimental.parameters: read-out: rAR IC50
property: IC50 (µM)
Report only the number, with the unit µM understood.

Input line: Dear colleague, I am looking for the recorded IC50 of the following compound: O=C(O)C=Cc1ccc(O)cc1 [Compound 3, p-hydroxycinnamic acid]
Output line: 8.35

Input line: Give its IC50 value. Item: C=COC(=O)/C=C/c1ccc(O)c(O)c1
Output line: 3.2

###

# protocol: ABTS•+ assay
property: IC50 (µM)
Give just the numeric value; µM need not be written.

Input line: Could you tell me which IC50 is on file for O=C(O)c1ccc(O)c(O)c1 [Compound 2, protocatechuic acid] ?
Output line: 11.6

Input line: What does the record list as IC50 for O=C(/C=C/c1ccc(O)c(O)c1)O[C@H](Cc1ccc(O)c(O)c1)C(=O)O [Compound 4, rosmarinic acid] ?
Output line: 8.79

Input line: Give the measured IC50 of C=COC(=O)/C=C/c1ccc(O)c(O)c1 [Compound 5, caffeic acid ethylene ester] .
Output line: 10.5

Input line: Name the recorded IC50 for O=Cc1ccc(O)c(O)c1 [Compound 6, protocatechualdehyde] .
Output line: 12.4

Input line: Quick check: IC50 of O=C(O)/C=C/c1ccc(O)c(O)c1 [Compound 1, caffeic acid] ?
Output line: 12
